Hello, the source for this data is patent US20250320312A1, in case you need it.

TARGET OR SYSTEM: T1, Peptide 8: Biotin-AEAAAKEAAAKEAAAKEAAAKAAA-Tyr-acid (N-terminal biotin; C-terminal acid)
T1 construct: Control peptide without PC
T1 peptide: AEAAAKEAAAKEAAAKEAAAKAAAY
ASSAY NOTES: scFv ELISA
ASSAY METRIC: OD450 (OD450)

- PcOxP_DB02_F11 (scFv, V domains shown, scFv in periplasmic extract) VH: EVQLLESGGGLVQPGGSLRLSCAASGTTFSDFYMEWVRQAPGKGLEWVAASRNKYNDYTTEYADSVKGRFTISRDNSKNTLYLQMNSLRAEDTAVYYCARDYYGSSYWYFDVWGQGTLVTVSS VL: DIVMTQSPDSLAVSLGERATINCTASESLYSSKHKVHYLAWYQQKPGQPPKLLIYGASNRYPGVPDRFSGSGSGTDFTLTISSLQAEDVAVYYCAQFYSYPLTFGGGTKVEIK: 0.04
- PcOxP_DB03_F02 (scFv, V domains shown, scFv in periplasmic extract) VH: EVQLLESGGGLVQPGGSLRLSCAASGFTFSSYYMEWVRQAPGKGLEWVAASRNKANDYTTEYADSVKGRFTISRDNSKNTLYLQMNSLRAEDTAVYYCARDYYDSSYWYFDVWGQGTLVTVSS VL: DIVMTQSPDSLAVSLGERATINCTSSESLLSSKHKVHYLAWYQQKPGQPPKLLIYGASNRYTGVPDRFSGSGSGTDFTLTISSLQAEDVAVYYCAQFYSYPLTFGGGTKVEIK: 0.05
- PcOxP_DB03_B11 (scFv, V domains shown, scFv in periplasmic extract) VH: EVQLLESGGGLVQPGGSLRLSCAASGFTFSDFYVEWVRQAPGKGLEWVAASRNKANTYTTEYADSVKGRFTISRDNSKNTLYLQMNSLRAEDTAVYYCARDYYGSSYWYFDVWGQGTLVTVSS VL: DIVMTQSPDSLAVSLGERATINCTASESLYSSKHKVHYLAWYQQKPGQPPKLLIYGAQNRYIGVPDRFSGSGSGTDFTLTISSLQAEDVAVYYCGQFYSYPLTFGGGTKVEIK: 0.05
- PcOxP_DB02_H02 (scFv, V domains shown, scFv in periplasmic extract) VH: EVQLLESGGGLVQPGGSLRLSCAASGPTFSDFYMEWVRQAPGKGLEWVAASRNKANDYTTEYADSVKGRFTISRDNSKNTLYLQMNSLRAEDTAVYYCARDYYGSSYWYFDVWGQGTLVTVSS VL: DIVMTQSPDSLAVSLGERATINCTASESLYSSKHKVHYLAWYQQKPGQPPKLLIYGASNRYIGVPDRFSGSGSGTDFTLTISSLQAEDVAVYYCAQFYDYPLTFGGGTKVEIK: 0.06
- PcOxP_DB02_H08 (scFv, V domains shown, scFv in periplasmic extract) VH: EVQLLESGGGLVQPGGSLRLSCAASGFTFSDAYMEWVRQAPGKGLEWVAASRNKANDYTTEYADSVKGRFTISRDNSKNTLYLQMNSLRAEDTAVYYCARDYYGSHYWYFDVWGQGTLVTVSS VL: DIVMTQSPDSLAVSLGERATINCTSSQSLYSSKHNKHYLAWYQQKPGQPPKLLIYGASNRYIGVPDRFSGSGSGTDFTLTISSLQAEDVAVYYCAQFYSYPLTFGGGTKVEIK: 0.06
